Assay: Pharmacokinetic study of FLV in rabbits after oral FLV alone and with EMP
Format: in vivo, New Zealand white rabbits
Details: New Zealand white, rabbit, plasma, po, 2 mg/kg, FLV (2 mg kg−1) co-administered with EMP (1.5 mg kg−1), oral, rabbit plasma, mean ± SD; read-out: t0.5 (elimination half-life) (converted)
MEASUREMENT TYPE: half-life (h)
Number in h, nothing else.

(Q) Give the measured half-life of CC(C)n1c(/C=C/C(O)CC(O)CC(=O)O)c(-c2ccc(F)cc2)c2ccccc21 (stereo not shown) .
(A) 7.73

----------
Assay: Pharmacokinetic study of FLV in rabbits after oral FLV alone and with EMP
Format: in vivo, New Zealand white rabbits
Conditions: New Zealand white, rabbit, plasma, po, 2 mg/kg, FLV alone, oral 2.0 mg kg−1, rabbit plasma, mean ± SD
Protocol: Ethical approval (under the No. 06/2023/0111) for this research was granted by the ethics committee at Assiut University, Egypt, and the study was conducted in adherence to the principles outlined in the Declaration of Helsinki. The study involved six New Zealand white rabbits, each weighing 2.0 ± 0.2 kg, obtained from a licensed animal supplier in Assiut, Egypt. Before commencing the study, the rabbits' health was evaluated, ensuring they were in good condition. […]
MEASUREMENT TYPE: AUC(0-inf) (ng·h/mL)
Number in ng·h/mL, nothing else.

(Q) Give the measured AUC(0-inf) of CC(C)n1c(/C=C/C(O)CC(O)CC(=O)O)c(-c2ccc(F)cc2)c2ccccc21 (stereo not shown) .
(A) 1370

----------
Test: Pharmacokinetic study of FLV in rabbits after oral FLV alone and with EMP
Format: in vivo, New Zealand white rabbits
Details: New Zealand white, rabbit, plasma, po, 2 mg/kg, FLV (2 mg kg−1) co-administered with EMP (1.5 mg kg−1), rabbit plasma, mean ± SD
MEASUREMENT TYPE: Cmax

(Q) Give the measured Cmax of CC(C)n1c(/C=C/C(O)CC(O)CC(=O)O)c(-c2ccc(F)cc2)c2ccccc21 (stereo not shown) .
(A) 352 ng/mL

----------
Assay: Pharmacokinetic study of FLV in rabbits after oral FLV alone and with EMP
Assay type: in vivo, New Zealand white rabbits
Settings: New Zealand white, rabbit, plasma, po, 2 mg/kg, FLV (2 mg kg−1) co-administered with EMP (1.5 mg kg−1), oral, rabbit plasma, mean ± SD; read-out: Ke (elimination rate constant) (converted)
MEASUREMENT TYPE: k el (s⁻¹)
Number in s⁻¹, nothing else.

(Q) Give the measured k el of CC(C)n1c(/C=C/C(O)CC(O)CC(=O)O)c(-c2ccc(F)cc2)c2ccccc21 (stereo not shown) .
(A) 2.5e-05

----------
Test: Pharmacokinetic study of FLV in rabbits after oral FLV alone and with EMP
Format: in vivo, New Zealand white rabbits
Conditions: New Zealand white, rabbit, plasma, po, 2 mg/kg, FLV (2 mg kg−1) co-administered with EMP (1.5 mg kg−1), oral, rabbit plasma, mean ± SD; read-out: AUC0-24
MEASUREMENT TYPE: AUC(0-t)
Please format your answer as a value with the unit trailing.

(Q) Give the measured AUC(0-t) of CC(C)n1c(/C=C/C(O)CC(O)CC(=O)O)c(-c2ccc(F)cc2)c2ccccc21 (stereo not shown) .
(A) 2580 ng·h/mL

----------
Test: Pharmacokinetic study of FLV in rabbits after oral FLV alone and with EMP
Format: in vivo, New Zealand white rabbits
Details: New Zealand white; FLV (2 mg kg−1) co-administered with EMP (1.5 mg kg−1), oral, rabbit plasma, mean ± SD
MEASUREMENT TYPE: Tmax (h)
Number in h, nothing else.

(Q) Give the measured Tmax of CC(C)n1c(/C=C/C(O)CC(O)CC(=O)O)c(-c2ccc(F)cc2)c2ccccc21 (stereo not shown) [FLV, Fluvastatin] .
(A) 1.5

----------
Assay: Pharmacokinetic study of FLV in rabbits after oral FLV alone and with EMP
Assay type: in vivo, New Zealand white rabbits
Details: New Zealand white, rabbit, plasma, po, 2 mg/kg, FLV alone, oral 2.0 mg kg−1, rabbit plasma, mean ± SD
MEASUREMENT TYPE: Cmax (ng/mL)
Number in ng/mL, nothing else.

(Q) Give the measured Cmax of CC(C)n1c(/C=C/C(O)CC(O)CC(=O)O)c(-c2ccc(F)cc2)c2ccccc21 (stereo not shown) .
(A) 250

----------
Test: Pharmacokinetic study of FLV in rabbits after oral FLV alone and with EMP
Type: in vivo, New Zealand white rabbits
Conditions: New Zealand white, rabbit, plasma, po, 2 mg/kg, FLV (2 mg kg−1) co-administered with EMP (1.5 mg kg−1), rabbit plasma, mean ± SD
MEASUREMENT TYPE: MRT (h)
Number in h, nothing else.

(Q) Give the measured MRT of CC(C)n1c(/C=C/C(O)CC(O)CC(=O)O)c(-c2ccc(F)cc2)c2ccccc21 (stereo not shown) [FLV, Fluvastatin] .
(A) 7.66

----------
Experiment: Pharmacokinetic study of FLV in rabbits after oral FLV alone and with EMP
Type: in vivo, New Zealand white rabbits
Details: New Zealand white, rabbit, plasma, po, 2 mg/kg, FLV alone, oral 2.0 mg kg−1, rabbit plasma, mean ± SD
MEASUREMENT TYPE: MRT
Please format your answer as a value with the unit trailing.

(Q) Give the measured MRT of CC(C)n1c(/C=C/C(O)CC(O)CC(=O)O)c(-c2ccc(F)cc2)c2ccccc21 (stereo not shown) [FLV, Fluvastatin] .
(A) 6.99 h
